The measured values listed here are drawn from PubChem BioAssay AID602230.

study.system: Lon protease (Escherichia coli (strain K12))
test.protocol: inhibition of eLon from E. coli – biochemical, fluorescence polarization, confirmation (AID 602230);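 note: 0% = enzyme with probe and DMSO and 100% = no enzyme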
condition.notes: purified E. coli Lon, at 7.94 µM, active compounds read high
In all, about 1,400 compounds went through this assay and about 450 (32%) were called active. The list is a sample of the results.

compound | unit.spec | inhibition
CC1(C)OC(=O)C(=CNC(CO)C(=O)O)C(=O)O1 (stereo unspecified) | % | -19.2
COc1cccc2sc(N(CCCN(C)C)C(=O)CCS(=O)(=O)c3ccccc3)nc12 | % | 7.07
O=C(COC(=O)Cn1cnc2ccccc21)Nc1cccc2c1C(=O)c1ccccc1C2=O | % | 79.2
COC(=O)C[n+]1cccc2ccccc21 | % | 116
CCc1ccc(NC(=O)C(=O)N/N=C(\C)CC(=O)NCCOC)cc1 | % | -6.81
COc1ccc(Nc2ccc([N+](=O)[O-])cn2)cn1 | % | -45.8
Cc1cc(Br)cn2c(Cc3ccsc3)c(-c3ccc(C#N)cc3)nc12 | % | 45.3
COc1ccc(-c2onc3ccc(C(C)=O)cc23)cc1 | % | 182
COCCNC(=O)Nc1ccc2nc(-c3ccco3)c(-c3ccco3)nc2c1 | % | 23.4
CCCCOCCCNC(=O)C[C@@H]1C[C@@]2(C(=O)OC)CCCCC=C2N(CCC2=CCCCC2)C1=O | % | 9.11
O=C(CN1CCCSc2ccccc21)N1CCN(S(=O)(=O)c2cccc(F)c2)CC1 | % | 40.1
